system: BT-549 breast; test: NCI tumour cell line growth inhibition, 48 h
observedProperty: log10 TGI (log10 of the value in µM)

>>> testresult("COc1cc2c3c(n(CCCI)c(=O)c2cc1OC)-c1cc2c(cc1C3=O)OCO2")
0.97
>>> testresult("CC1(C)[C@@H](O[C@@H]2OC[C@@H](O[C@@H]3O[C@H](CO)[C@@H](O)[C@H](O)[C@H]3O[C@@H]3OC[C@@H](O)[C@H](O)[C@H]3O)[C@H](O)[C@H]2O[C@@H]2O[C@H](CO)[C@@H](O)[C@H](O)[C@H]2O)CC[C@]2(C)[C@H]3CC[C@]45OC[C@@]6(CC[C@](C)(C=O)C[C@H]64)[C@H](O)C[C@@]5(C)[C@]3(C)CC[C@@H]12")
0.53
>>> testresult("Cc1cccc2c(=O)c3c(sc12)c(NCCNCCO)nc1ccccc13")
0.53
>>> testresult("Cc1cc(N(CCNc2ccnc3cc(Cl)ccc23)Cc2ccco2)nc(Cl)n1")
0.50
>>> testresult("CCCCCCCCCCCCCC[n+]1ccc2c(C)c3c(c(C)c2c1)c1cc(O)ccc1n3CC")
0.16
>>> testresult("CN(C)c1ccccc1CN1CCCN(Cc2ccccc2N(C)C)C1c1ccncc1")
1.54
>>> testresult("C=C1CC/C=C(\\C)C(=O)C[C@@H]2[C@@H]1CC2(C)C")
1.06
>>> testresult("CCc1ccc2nc(-c3ccc(O)cc3)sc2c1")
1.49

Values were extracted from PubChem BioAssay (NCI).
